Source: patent US8357673B2

Method: In vitro cytotoxicity, Calcein AM, 72 h
Type: cell-based, human
Reported Conditions: human, K562 cells (human chronic myeloblastic leukemia); at 100 μM, 72 h; read-out: % of viable cells K562
# maps each entry to its viability at 72 h, 100 µM
Field: numeric (%). Do not append units.

>  <Compound>
Nc1n[nH]c(N)c1N=Nc1ccc(O)cc1 [Compound 12b]

>  <Measurement Kind>
viability at 72 h, 100 µM

>  <Measured>
23

$$$$
>  <Compound>
Nc1n[nH]c(N)c1/N=N/c1cccc(O)c1 [Compound 11b]

>  <Measurement Kind>
viability at 72 h, 100 µM

>  <Measured>
53

$$$$
>  <Compound>
Nc1n[nH]c(N)c1N=Nc1ccccc1CO [Compound 16b]

>  <Measurement Kind>
viability at 72 h, 100 µM

>  <Measured>
86

$$$$

Ask | I have this compound here, Nc1n[nH]c(N)c1/N=N/c1cccc([N+](=O)[O-])c1 [Compound 8b] , and I need its recorded viability at 72 h, 100 µM.
Reply | 28

Ask | I have this compound here, Nc1n[nH]c(N)c1/N=N/c1ccc([N+](=O)[O-])cc1 [Compound 9b] , and I need its recorded viability at 72 h, 100 µM.
Reply | 25

Ask | I have this compound here, Nc1n[nH]c(N)c1N=Nc1ccccc1[N+](=O)[O-] [Compound 7b] , and I need its recorded viability at 72 h, 100 µM.
Reply | 48

Ask | I have this compound here, Nc1n[nH]c(N)c1/N=N/c1ccccc1O [Compound 10b] , and I need its recorded viability at 72 h, 100 µM.
Reply | 72
